- system_under_test: T1, HLA-DR4 (DRB1*0401) molecules, affinity purified (human)
- T1 construct: mature; Used at 0.05-5 uM in the assay
- assay_details: semi-quantitative competition with biotinylated IHA(307-319)F for purified HLA-DR; range taken from the table legend for grade ++
pIC50: −log10 of the molar value.
measure_name: pIC50

binder	measure_name	value
H-AGWLADGSLRYPI-OH (Synthetic peptide with free amino and carboxy termini; The residue range on HAG is not tied to this label) [HAG3]	pIC50	5.00 to 6.00

Consider the record given below.
stdin: What value of measured pIC50 is listed for H-AGWLADRSVRYPI-OH (Synthetic peptide with free amino and carboxy termini; The residue range on HAG is not tied to this label) [HAG2] ?
stdout: 5.00 to 6.00
